targetOfAssay: MAPKAP-K2 (Homo sapiens, UniProt P49137)
Sequence (P49137 whole entry): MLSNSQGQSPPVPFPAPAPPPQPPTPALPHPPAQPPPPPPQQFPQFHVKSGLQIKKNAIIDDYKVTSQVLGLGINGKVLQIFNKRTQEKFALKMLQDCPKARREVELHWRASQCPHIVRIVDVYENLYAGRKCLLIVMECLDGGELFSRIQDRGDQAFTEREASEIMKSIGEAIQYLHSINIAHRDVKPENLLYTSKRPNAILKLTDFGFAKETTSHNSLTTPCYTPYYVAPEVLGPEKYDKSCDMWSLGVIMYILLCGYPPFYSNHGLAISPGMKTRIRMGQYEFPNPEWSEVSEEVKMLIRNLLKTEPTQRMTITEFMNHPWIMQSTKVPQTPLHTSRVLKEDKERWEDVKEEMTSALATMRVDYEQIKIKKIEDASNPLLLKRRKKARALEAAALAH
testDescription: MAPKAP-K2 enzyme activity inhibition (33P-ATP filter plate kinase assay); note: key: +: active; ++: more active; +++: very active
Type: biochemical
assayConditions: MAPKAP-K2 inhibitory activity; assays conducted at typically 1-100 μM

- compound: "Cc1c(N[C@H]2CC[C@H](N)CC2)nc2ccnn2c1Nc1ccc(-c2ccccc2C(F)(F)F)cc1 [Compound 323]"
  activity (efficacy against MAPKAP-K2): "++"
- compound: "Cc1c(N[C@H]2CC[C@H](N)CC2)nc2ccnn2c1Nc1ccc(C(=O)Nc2ccccc2)cc1 [Compound 776]"
  activity (efficacy against MAPKAP-K2): "+++"
- compound: "CCCCC(=O)c1cnn2c(Nc3ccc(OCC)cc3)c(C)c(N[C@H]3CC[C@H](N)CC3)nc12 [Compound 362]"
  activity (efficacy against MAPKAP-K2): "++"
- compound: "CCc1c(N[C@H]2CC[C@H](N)CC2)nc2ccnn2c1Nc1ccc(OC)c(OC)c1 [Compound 58]"
  activity (efficacy against MAPKAP-K2): "++"
